Measured pIC50 accompanies every entry in the list below.
target: Glycogen synthase kinase-3 beta (Homo sapiens); experiment: Inhibition of human recombinant N-terminal His6-tagged human GSK-3beta expressed in Baculovirus infected SF9 cells using prephosphorylated-GS2 polypeptide as substrate after 30 mins by kinase-Glo reagent based luminescence assay
Sequence (P49841 whole entry): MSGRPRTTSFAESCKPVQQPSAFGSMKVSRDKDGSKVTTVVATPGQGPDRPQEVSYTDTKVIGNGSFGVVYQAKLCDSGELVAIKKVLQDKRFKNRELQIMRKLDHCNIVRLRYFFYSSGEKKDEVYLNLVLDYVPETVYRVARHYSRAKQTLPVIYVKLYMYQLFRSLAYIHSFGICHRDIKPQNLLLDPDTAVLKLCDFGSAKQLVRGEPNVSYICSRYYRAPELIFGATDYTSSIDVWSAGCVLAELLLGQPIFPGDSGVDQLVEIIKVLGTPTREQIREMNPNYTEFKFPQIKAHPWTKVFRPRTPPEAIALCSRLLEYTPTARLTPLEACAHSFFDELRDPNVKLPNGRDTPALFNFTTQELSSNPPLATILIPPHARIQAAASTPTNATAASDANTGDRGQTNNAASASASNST
pIC50: −log10 of the molar value.

compound | sign | pIC50
O=C(NCCc1ccccc1)c1ccc(C2CC(=O)N(Cc3ccccc3[N+](=O)[O-])c3ccccc3S2)cc1 (stereo unspecified) | = | 4.68
O=C(NCc1cccc(F)c1)c1ccc(C2CC(=O)N(Cc3ccccc3[N+](=O)[O-])c3ccccc3S2)cc1 (stereo unspecified) | = | 4.72
Cc1ccc(C2CC(=O)N(Cc3ccccc3[N+](=O)[O-])c3ccccc3S2)cc1 (stereo unspecified) | = | 4.70
O=C(NC1CC1)c1ccc(C2CC(=O)N(Cc3ccccc3[N+](=O)[O-])c3ccccc3S2)cc1 (stereo unspecified) | < | 4.00
CS(=O)(=O)c1cccc(N2C(=O)CC(c3ccc(C(=O)NCc4cccc(Cl)c4)cc3)Sc3ccccc32)c1 (stereo unspecified) | = | 4.74
O=C1CC(c2ccc(-c3ccccc3)cc2)Sc2ccccc2N1Cc1ccccc1[N+](=O)[O-] (stereo unspecified) | = | 4.29
O=C(NCc1ccc(F)cc1)c1ccc(C2CC(=O)N(Cc3ccccc3[N+](=O)[O-])c3ccccc3S2)cc1 (stereo unspecified) | = | 4.74
COc1ccc(CNC(=O)c2ccc(C3CC(=O)N(Cc4ccccc4[N+](=O)[O-])c4ccccc4S3)cc2)cc1 (stereo unspecified) | = | 4.57
NC(=O)c1ccccc1CN1C(=O)CC(c2ccc(C(=O)NCc3ccccc3)cc2)Sc2ccccc21 (stereo unspecified) | = | 4.00
CCN(CC)C(=O)c1ccc(C2CC(=O)N(Cc3ccccc3[N+](=O)[O-])c3ccccc3S2)cc1 (stereo unspecified) | = | 4.05
O=C(NCc1ccccc1)c1ccc(C2CC(=O)N(Cc3ccccc3[N+](=O)[O-])c3ccccc3S2)cc1 (stereo unspecified) | = | 4.55
O=C(NCc1cccc(Cl)c1)c1ccc(C2CC(=O)N(Cc3ccccc3[N+](=O)[O-])c3ccccc3S2)cc1 (stereo unspecified) | = | 4.46
O=C(c1ccc(C2CC(=O)N(Cc3ccccc3[N+](=O)[O-])c3ccccc3S2)cc1)N1CCCCC1 (stereo unspecified) | = | 4.31
O=C(NCc1ccc(Br)cc1)c1ccc(C2CC(=O)N(Cc3ccccc3[N+](=O)[O-])c3ccccc3S2)cc1 (stereo unspecified) | = | 4.60
COC(=O)c1ccccc1C1CC(=O)N(Cc2ccccc2[N+](=O)[O-])c2ccccc2S1 (stereo unspecified) | = | 4.10
O=C(NCc1ccccn1)c1ccc(C2CC(=O)N(Cc3ccccc3[N+](=O)[O-])c3ccccc3S2)cc1 (stereo unspecified) | = | 4.12
Cc1ccc(CNC(=O)c2ccc(C3CC(=O)N(Cc4ccccc4[N+](=O)[O-])c4ccccc4S3)cc2)cc1 (stereo unspecified) | = | 4.74
O=C(NCc1ccccc1F)c1ccc(C2CC(=O)N(Cc3ccccc3[N+](=O)[O-])c3ccccc3S2)cc1 (stereo unspecified) | = | 4.70
O=C(NCc1ccco1)c1ccc(C2CC(=O)N(Cc3ccccc3[N+](=O)[O-])c3ccccc3S2)cc1 (stereo unspecified) | = | 4.57
O=C(NC1CCCCC1)c1ccc(C2CC(=O)N(Cc3ccccc3[N+](=O)[O-])c3ccccc3S2)cc1 (stereo unspecified) | = | 4.49
CC(C)(C)NC(=O)c1ccc(C2CC(=O)N(Cc3ccccc3[N+](=O)[O-])c3ccccc3S2)cc1 (stereo unspecified) | = | 4.32
CN1CCN(C(=O)c2ccc(C3CC(=O)N(Cc4ccccc4[N+](=O)[O-])c4ccccc4S3)cc2)CC1 (stereo unspecified) | < | 4.00
O=C1CC(c2ccc(C(=O)NCc3cccc(Cl)c3)cc2)Sc2ccccc2N1 (stereo unspecified) | = | 4.60
CS(=O)(=O)Nc1ccccc1CN1C(=O)CC(c2ccc(C(=O)NCc3cccc(Cl)c3)cc2)Sc2ccccc21 (stereo unspecified) | = | 4.77
COC(=O)c1cccc(C2CC(=O)N(Cc3ccccc3[N+](=O)[O-])c3ccccc3S2)c1 (stereo unspecified) | = | 4.18
N#Cc1ccc(C2CC(=O)N(Cc3ccccc3[N+](=O)[O-])c3ccccc3S2)cc1 (stereo unspecified) | = | 4.35
